Taken from ChEMBL document CHEMBL4130563.

# ASSAYED TARGET: Cytochrome P450 1B1 (Homo sapiens, UniProt Q16678)
# ASSAY METHOD TEXT: Inhibition of recombinant human CYP1B1 expressed in supersomes coexpressing P450 reductase using 7-ethyl-O-resorufin as substrate after 45 mins in presence of NADPH by fluorescence assay
MEASUREMENT KIND: IC50 (nM)
Dear colleague, please return just the value in nM, with no unit written.

Field: example entries. Status: answers known.
>>> quantitative_result("C[C@]12CC[C@@H]3c4cc(-c5ccncc5)c(O)cc4CC[C@H]3[C@@H]1CC[C@@H]2O")
32
>>> quantitative_result("C[C@]12CC[C@@H]3c4cc(-c5cccnc5)c(O)cc4CC[C@H]3[C@@H]1CC[C@@H]2O")
11

IC50 lookup needed for C[C@]12CC[C@@H]3c4cc(-c5ccncc5)c(O)cc4CC[C@H]3[C@@H]1CCC2=O , thanks. 120

IC50 for C[C@]12CC[C@@H]3c4cc(-c5cccnc5)c(O)cc4CC[C@H]3[C@@H]1CCC2=O ? 63

----------
# ASSAYED TARGET: UniProt:Q16678
# ASSAY METHOD TEXT: Inhibition of recombinant human CYP1B1 expressed in supersomes coexpressing P450 reductase at 0.3 uM using 7-ethyl-O-resorufin as substrate after 45 mins in presence of NADPH by fluorescence assay relative to control
# MEASUREMENT CONDITIONS: probe 7-ethyl-O-resorufin
inhibition at 0.75 h, 0.3 µM vs 20%: at or above is condition met, below is condition not met.

Worked examples follow.
>>> group_label("C[C@]12CC[C@@H]3c4ccc(O)c(-c5ccncc5)c4CC[C@H]3[C@@H]1CC[C@@H]2O")
"condition met"
>>> group_label("C[C@]12CC[C@@H]3c4cc(-c5ccncc5)c(O)cc4CC[C@H]3[C@@H]1CCC2=O")
"condition met"
>>> group_label("O=c1cc(-c2ccccc2)oc2c1ccc1ccccc12")
"condition met"

Is inhibition at 0.75 h, 0.3 µM for C[C@]12CC[C@@H]3c4ccc(-c5ccncc5)cc4CC[C@H]3[C@@H]1CCC2=O at or above 20%? condition not met

Does the reported inhibition at 0.75 h, 0.3 µM for C[C@]12CC[C@@H]3c4ccc(O)c(-c5cccnc5)c4CC[C@H]3[C@@H]1CC[C@@H]2O fall at or above the 20% mark? condition met

----------
inhibition at 0.75 h, 0.3 µM: recorded values
# ASSAYED TARGET: UniProtKB Q16678
# Sequence (Q16678 whole entry): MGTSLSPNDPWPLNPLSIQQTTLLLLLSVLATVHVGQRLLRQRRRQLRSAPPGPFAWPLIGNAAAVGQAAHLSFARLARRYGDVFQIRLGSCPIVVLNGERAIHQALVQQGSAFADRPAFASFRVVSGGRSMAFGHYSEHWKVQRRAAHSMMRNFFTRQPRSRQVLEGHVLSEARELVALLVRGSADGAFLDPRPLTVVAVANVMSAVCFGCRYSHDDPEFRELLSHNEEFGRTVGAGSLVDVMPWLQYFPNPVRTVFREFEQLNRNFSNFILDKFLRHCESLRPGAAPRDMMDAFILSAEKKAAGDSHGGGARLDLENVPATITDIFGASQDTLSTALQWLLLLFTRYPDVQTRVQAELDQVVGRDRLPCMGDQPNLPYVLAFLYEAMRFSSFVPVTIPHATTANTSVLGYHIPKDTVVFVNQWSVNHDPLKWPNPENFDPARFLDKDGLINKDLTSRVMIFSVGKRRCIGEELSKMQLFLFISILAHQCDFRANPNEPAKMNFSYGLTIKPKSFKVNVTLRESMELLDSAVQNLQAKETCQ
# ASSAY METHOD TEXT: Inhibition of recombinant human CYP1B1 expressed in supersomes coexpressing P450 reductase at 0.3 uM using 7-ethyl-O-resorufin as substrate after 45 mins in presence of NADPH by fluorescence assay relative to control
# MEASUREMENT CONDITIONS: probe 7-ethyl-O-resorufin
Field format: number, assumed %, no unit text.

>>> quantitative_result("C[C@]12CC[C@@H]3c4ccc(O)c(-c5ccncc5)c4CC[C@H]3[C@@H]1CCC2=O")
16.9
>>> quantitative_result("C[C@]12CC[C@@H]3c4cc(-c5cccnc5)c(O)cc4CC[C@H]3[C@@H]1CC[C@@H]2O")
85.4
>>> quantitative_result("C[C@]12CC[C@@H]3c4ccc(O)c(-c5cccnc5)c4CC[C@H]3[C@@H]1CCC2=O")
14

Report inhibition at 0.75 h, 0.3 µM for C[C@]12CC[C@@H]3c4cc(-c5cccnc5)c(O)cc4CC[C@H]3[C@@H]1CCC2=O tested on UniProtKB Q16678. 37.8

Entry C[C@]12CC[C@@H]3c4ccc(-c5cccnc5)cc4CC[C@H]3[C@@H]1CCC2=O , system UniProtKB Q16678: what inhibition at 0.75 h, 0.3 µM was measured? 28.2

Hello, I am looking for reported inhibition at 0.75 h, 0.3 µM with UniProtKB Q16678 for C[C@]12CC[C@@H]3c4ccc(S)cc4CC[C@H]3[C@@H]1CCC2=O . Could you help? 13.3

Find the measured inhibition at 0.75 h, 0.3 µM: item C[C@]12CC[C@@H]3c4cc(-c5ccncc5)c(O)cc4CC[C@H]3[C@@H]1CC[C@@H]2O , target or system UniProtKB Q16678. 87.4

Which inhibition at 0.75 h, 0.3 µM is reported with UniProtKB Q16678 for this entry: C[C@]12CC[C@@H]3c4ccc(O)cc4CC[C@H]3[C@@H]1CC[C@@H]2O [ESTRADIOL] ? 12.4
